biological target: human DNA topoisomerase IIα (Homo sapiens); experiment: human DNA topoisomerase IIα inhibition; type: biochemical; conditions: read-out: RA (residual activity) Human topo IIα
Sequence (P11388 whole entry): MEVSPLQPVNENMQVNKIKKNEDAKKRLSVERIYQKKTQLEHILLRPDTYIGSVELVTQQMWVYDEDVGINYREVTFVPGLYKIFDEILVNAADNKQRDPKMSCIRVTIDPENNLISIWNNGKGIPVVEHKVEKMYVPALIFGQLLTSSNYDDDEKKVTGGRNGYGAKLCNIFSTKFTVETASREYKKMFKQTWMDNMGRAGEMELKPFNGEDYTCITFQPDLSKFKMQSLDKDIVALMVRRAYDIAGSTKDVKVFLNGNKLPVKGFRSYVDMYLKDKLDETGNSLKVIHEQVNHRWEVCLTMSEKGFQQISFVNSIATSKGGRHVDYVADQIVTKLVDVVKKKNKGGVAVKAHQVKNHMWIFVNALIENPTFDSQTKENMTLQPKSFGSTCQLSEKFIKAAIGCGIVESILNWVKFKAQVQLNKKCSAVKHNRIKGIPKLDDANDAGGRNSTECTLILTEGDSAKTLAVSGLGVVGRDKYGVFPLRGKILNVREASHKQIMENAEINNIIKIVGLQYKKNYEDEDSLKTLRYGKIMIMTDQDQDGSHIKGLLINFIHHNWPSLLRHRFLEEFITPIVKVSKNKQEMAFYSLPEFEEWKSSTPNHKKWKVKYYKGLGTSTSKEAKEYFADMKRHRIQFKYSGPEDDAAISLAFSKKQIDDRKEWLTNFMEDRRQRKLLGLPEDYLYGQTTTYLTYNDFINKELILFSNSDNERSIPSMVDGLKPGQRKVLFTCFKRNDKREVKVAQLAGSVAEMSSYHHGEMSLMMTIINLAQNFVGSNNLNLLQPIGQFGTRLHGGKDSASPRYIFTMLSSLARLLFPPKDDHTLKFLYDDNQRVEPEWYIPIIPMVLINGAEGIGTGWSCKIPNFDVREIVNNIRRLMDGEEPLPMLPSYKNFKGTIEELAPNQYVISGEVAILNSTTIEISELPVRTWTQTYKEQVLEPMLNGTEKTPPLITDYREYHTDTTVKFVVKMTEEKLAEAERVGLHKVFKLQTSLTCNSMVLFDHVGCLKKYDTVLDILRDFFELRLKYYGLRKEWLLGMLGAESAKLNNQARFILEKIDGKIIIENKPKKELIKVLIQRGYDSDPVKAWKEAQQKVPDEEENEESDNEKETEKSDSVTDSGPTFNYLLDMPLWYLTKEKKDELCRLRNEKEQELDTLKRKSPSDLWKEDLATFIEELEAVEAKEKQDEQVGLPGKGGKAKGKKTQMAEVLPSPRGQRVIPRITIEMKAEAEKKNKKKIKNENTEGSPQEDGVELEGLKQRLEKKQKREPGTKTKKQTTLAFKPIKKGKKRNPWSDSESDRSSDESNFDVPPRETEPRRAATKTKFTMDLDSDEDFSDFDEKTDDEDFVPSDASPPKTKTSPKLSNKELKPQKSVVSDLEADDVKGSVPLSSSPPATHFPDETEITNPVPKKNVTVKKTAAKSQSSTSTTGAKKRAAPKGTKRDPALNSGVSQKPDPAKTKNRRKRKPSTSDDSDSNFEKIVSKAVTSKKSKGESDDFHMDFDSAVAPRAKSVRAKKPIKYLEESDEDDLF
measured-metric: remaining activity at 100 µM (%)

molecule: Cc1[nH]c(C(=O)Nc2ccc(-c3n[nH]c(=O)o3)cc2N2CCN(C(=O)OC(C)(C)C)CC2)c(Cl)c1Cl [Compound 22a]
measured-metric: remaining activity at 100 µM
unit-of-measurement: %
reported-result: 100

molecule: Cc1[nH]c(C(=O)Nc2ccc(C(=O)O)cc2N2CCCC(CN)C2)c(Cl)c1Cl.Cl (stereo not drawn) [Compound 20i]
measured-metric: remaining activity at 100 µM
unit-of-measurement: %
reported-result: 28

molecule: Cc1[nH]c(C(=O)Nc2ccc(-c3n[nH]c(=O)o3)cc2N2CCOCC2)c(Cl)c1Cl [Compound 22e]
measured-metric: remaining activity at 100 µM
unit-of-measurement: %
reported-result: 93

----------
target: UniProtKB P20083; assay: topoisomerase IV relaxation plate assay; assay type: biochemical; settings: read-out: RA (residual activity) E. coli topo IV
Sequence (P20083 whole entry): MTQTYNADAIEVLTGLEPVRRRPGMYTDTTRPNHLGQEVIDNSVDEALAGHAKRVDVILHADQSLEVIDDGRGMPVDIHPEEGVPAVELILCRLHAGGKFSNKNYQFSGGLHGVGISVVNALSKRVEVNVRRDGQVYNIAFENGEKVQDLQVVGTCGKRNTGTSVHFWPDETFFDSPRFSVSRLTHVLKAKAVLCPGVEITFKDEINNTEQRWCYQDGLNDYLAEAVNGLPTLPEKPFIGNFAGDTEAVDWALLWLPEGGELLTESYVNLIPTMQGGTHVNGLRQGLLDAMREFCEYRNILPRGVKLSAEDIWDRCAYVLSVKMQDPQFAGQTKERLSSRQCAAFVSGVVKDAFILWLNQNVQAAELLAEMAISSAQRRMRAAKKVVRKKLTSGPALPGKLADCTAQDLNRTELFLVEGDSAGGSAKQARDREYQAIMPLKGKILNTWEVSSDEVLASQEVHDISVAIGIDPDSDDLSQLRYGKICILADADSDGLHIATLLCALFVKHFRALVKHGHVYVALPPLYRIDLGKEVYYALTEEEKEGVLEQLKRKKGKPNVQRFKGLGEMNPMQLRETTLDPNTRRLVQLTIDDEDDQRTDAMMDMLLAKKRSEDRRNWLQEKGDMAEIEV
Sequence (P0AFI2 whole entry partner): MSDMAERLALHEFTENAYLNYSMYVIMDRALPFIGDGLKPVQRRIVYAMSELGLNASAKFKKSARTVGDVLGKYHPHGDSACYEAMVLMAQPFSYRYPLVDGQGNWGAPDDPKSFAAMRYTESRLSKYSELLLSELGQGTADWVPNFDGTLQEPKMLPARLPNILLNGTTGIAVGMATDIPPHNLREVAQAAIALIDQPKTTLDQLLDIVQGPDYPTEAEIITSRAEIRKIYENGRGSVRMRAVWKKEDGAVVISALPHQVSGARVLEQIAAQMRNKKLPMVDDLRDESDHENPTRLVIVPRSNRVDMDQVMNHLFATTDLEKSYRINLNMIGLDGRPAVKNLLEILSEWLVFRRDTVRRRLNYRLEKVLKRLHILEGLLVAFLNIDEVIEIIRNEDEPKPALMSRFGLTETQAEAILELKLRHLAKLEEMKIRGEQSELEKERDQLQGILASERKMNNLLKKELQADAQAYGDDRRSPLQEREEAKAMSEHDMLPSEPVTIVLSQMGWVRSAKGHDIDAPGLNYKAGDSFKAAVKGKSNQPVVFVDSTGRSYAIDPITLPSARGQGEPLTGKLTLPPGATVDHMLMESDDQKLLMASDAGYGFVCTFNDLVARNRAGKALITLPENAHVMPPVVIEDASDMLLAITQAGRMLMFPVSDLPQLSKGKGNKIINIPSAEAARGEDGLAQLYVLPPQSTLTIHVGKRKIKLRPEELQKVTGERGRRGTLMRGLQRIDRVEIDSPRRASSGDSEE

molecule: Cc1[nH]c(C(=O)Nc2ccc(C(=O)NCC(=O)O)cc2N2CCN(C(=O)OC(C)(C)C)CC2)c(Cl)c1Cl
remaining activity at 1 µM, %: 93
--
molecule: Cc1[nH]c(C(=O)Nc2ccc(C(=O)O)cc2N2CCC[C@H](N)C2)c(Cl)c1Cl.Cl [Compound 20c]
remaining activity at 1 µM, %: 78
--
molecule: COC(=O)c1ccc(NC(=O)c2[nH]c(C)c(Cl)c2Cl)c(N2CCNCC2)c1.Cl [Compound 19a]
remaining activity at 1 µM, %: 102
--
molecule: Cc1[nH]c(C(=O)Nc2ccc(-c3n[nH]c(=O)o3)cc2N2CCN(C(=O)OC(C)(C)C)CC2)c(Cl)c1Cl [Compound 22a]
remaining activity at 1 µM, %: 104
